molecular target: NQO1 WT (NAD(P)H:quinone oxidoreductase 1) (Homo sapiens, UniProt P15559, P187S); construct: codon-optimised gene in pET28a, E. coli; FAD-containing homodimer; test: isothermal titration calorimetry; conditions: read-out: dissociation constant
metric-name: pKd
# log scale: pKd equals minus log10 of the concentration in mol/L

Please look at O=S(=O)(Nc1ccccc1Br)N1CCCC1 and tell me its recorded pKd on NQO1 WT (NAD(P)H:quinone oxidoreductase 1) (Homo sapiens, UniProt P15559, P187S).
4.70

====

biological target: NQO1 WT (NAD(P)H:quinone oxidoreductase 1) (Homo sapiens, UniProt P15559, P187S); construct: codon-optimised gene in pET28a, E. coli; FAD-containing homodimer; assay: NADH-menadione reductase assay, absorbance at […] nm
metric-name: pIC50
# log scale: pIC50 equals minus log10 of the concentration in mol/L

Return pIC50 for the following molecule: O=S(=O)(Nc1ccccc1Br)N1CCCC1
4.58
